target: T1, murine GPC3-his protein (Sino Biological, Cat. No. 50989-M08B) (murine, UniProt Q8CFZ4 25-558); assay: ELISA, coated murine GPC3-His;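 note: antigen coated on plates at 1 µg/mL, test antibody bound for 2 h at 37 °C, detected with HRP-conjugated secondary antibody and TMB substrate after acid stop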
T1 construct: Bought protein; also called murine GPC3 protein
T1 sequence (Q8CFZ4 25-558 limits assumed): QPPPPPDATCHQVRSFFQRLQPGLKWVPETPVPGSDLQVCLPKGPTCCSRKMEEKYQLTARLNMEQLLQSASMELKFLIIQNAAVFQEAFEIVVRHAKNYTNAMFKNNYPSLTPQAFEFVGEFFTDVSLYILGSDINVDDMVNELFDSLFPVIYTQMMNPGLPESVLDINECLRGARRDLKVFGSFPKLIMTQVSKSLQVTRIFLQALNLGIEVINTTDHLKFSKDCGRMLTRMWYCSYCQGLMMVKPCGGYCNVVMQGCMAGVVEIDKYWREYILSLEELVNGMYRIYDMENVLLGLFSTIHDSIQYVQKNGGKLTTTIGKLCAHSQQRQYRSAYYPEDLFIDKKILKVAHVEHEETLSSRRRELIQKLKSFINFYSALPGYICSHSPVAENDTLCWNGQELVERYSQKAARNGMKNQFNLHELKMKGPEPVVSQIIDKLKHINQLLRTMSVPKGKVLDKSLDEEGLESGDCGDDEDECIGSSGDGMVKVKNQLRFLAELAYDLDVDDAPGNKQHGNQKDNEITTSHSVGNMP
For each entry below, report its OD450 at 100 nM antibody value.
// units = OD450 nm; emit number, no label

Lookup result for F3.81.19 human-murine chimeric antibody (antibody, human IgG1, kappa, V domains shown) VH: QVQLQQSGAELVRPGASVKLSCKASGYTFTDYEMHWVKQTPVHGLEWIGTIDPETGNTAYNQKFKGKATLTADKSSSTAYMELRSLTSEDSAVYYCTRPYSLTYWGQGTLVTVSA VL: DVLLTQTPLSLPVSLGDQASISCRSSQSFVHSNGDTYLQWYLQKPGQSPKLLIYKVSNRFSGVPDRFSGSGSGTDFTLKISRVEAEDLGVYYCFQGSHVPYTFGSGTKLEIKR ; measured OD450 at 100 nM antibody: 0.1

response.value for F4.13.7 human-murine chimeric antibody (antibody, human IgG1, kappa, V domains shown) VH: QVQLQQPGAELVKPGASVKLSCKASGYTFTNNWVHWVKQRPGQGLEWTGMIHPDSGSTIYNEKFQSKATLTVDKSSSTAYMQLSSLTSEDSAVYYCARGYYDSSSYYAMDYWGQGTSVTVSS VL: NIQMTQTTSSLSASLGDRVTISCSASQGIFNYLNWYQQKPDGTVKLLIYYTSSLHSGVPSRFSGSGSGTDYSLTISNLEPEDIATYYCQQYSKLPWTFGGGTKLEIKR (field: OD450 at 100 nM antibody) = 2.87

Form field OD450 at 100 nM antibody, entry F4.18.4 human-murine chimeric antibody (antibody, human IgG1, kappa, V domains shown) VH: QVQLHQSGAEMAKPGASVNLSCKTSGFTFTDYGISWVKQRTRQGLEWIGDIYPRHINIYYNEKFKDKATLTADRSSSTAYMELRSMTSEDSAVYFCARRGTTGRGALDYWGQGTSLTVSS VL: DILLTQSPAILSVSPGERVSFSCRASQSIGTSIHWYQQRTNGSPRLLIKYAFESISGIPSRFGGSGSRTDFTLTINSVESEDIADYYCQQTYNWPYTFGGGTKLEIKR : 0.13
